molecular target: human ZIP14 (hZIP14) isoform 1, HA-tagged (Homo sapiens, UniProt Q15043); assay: cell-based
Sequence (Q15043 31-492): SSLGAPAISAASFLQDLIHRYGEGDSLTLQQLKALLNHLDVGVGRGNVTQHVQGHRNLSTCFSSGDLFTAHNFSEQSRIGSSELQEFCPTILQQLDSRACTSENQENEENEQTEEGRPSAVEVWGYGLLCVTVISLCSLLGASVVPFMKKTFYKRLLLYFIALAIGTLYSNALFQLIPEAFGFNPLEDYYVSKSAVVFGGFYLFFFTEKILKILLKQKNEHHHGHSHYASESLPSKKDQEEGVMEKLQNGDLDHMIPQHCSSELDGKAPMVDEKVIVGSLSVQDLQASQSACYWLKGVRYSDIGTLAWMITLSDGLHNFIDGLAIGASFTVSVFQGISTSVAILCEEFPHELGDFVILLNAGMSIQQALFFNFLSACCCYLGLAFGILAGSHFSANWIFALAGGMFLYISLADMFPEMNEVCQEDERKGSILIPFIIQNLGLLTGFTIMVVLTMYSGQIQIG
Reported Endpoint: IC50
I'd appreciate it if you wrote the number followed by its unit.

Record O=C1NCN(c2ccccc2)C12CCN(CCc1ccccc1)CC2 [PPTD] . Reported IC50: 8.9 µM

###

molecular target: human ZIP14 (hZIP14) isoform 1, HA-tagged (Homo sapiens, UniProt Q15043, D443L); assay: cell-based
Sequence (Q15043 31-492 D443L): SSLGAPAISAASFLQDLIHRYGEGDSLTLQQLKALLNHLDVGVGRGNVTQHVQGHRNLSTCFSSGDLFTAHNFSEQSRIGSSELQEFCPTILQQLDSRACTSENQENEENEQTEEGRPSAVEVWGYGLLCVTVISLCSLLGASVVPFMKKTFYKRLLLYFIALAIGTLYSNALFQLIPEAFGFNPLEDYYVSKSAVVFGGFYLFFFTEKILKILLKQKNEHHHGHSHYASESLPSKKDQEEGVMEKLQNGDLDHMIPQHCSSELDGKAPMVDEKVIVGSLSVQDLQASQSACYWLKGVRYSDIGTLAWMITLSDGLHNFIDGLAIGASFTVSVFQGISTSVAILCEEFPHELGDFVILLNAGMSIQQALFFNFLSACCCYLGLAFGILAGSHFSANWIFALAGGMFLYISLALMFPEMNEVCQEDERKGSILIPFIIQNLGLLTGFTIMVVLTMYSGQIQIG
Reported Endpoint: IC50

Lab entry: human ZIP14 (hZIP14) isoform 1, HA-tagged (Homo sapiens, UniProt Q15043, D443L) assay, molecule O=C1NCN(c2ccccc2)C12CCN(CCc1ccccc1)CC2 , IC50 = 19 µM

###

molecular target: UniProt Q9C0K1
Sequence (Q9C0K1 23-460): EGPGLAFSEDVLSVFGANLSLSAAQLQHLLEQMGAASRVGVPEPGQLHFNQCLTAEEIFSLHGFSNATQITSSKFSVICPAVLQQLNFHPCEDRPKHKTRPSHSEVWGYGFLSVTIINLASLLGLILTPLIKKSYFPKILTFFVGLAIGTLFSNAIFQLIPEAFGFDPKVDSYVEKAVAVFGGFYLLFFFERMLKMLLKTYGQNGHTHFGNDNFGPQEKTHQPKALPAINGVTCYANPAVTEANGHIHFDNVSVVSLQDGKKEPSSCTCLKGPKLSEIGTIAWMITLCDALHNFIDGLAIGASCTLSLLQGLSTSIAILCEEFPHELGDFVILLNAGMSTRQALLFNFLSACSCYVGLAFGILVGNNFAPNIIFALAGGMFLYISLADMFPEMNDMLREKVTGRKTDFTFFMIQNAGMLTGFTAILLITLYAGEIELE
pIC50: −log10 of the molar value.
Reported Endpoint: pIC50

Per the record, O=C1NCN(c2ccccc2)C12CCN(CCc1ccccc1)CC2 has pIC50 of < 4.43
